# Tested on: NCI-H522 lung
# ASSAY_COMMENT: NCI tumour cell line growth inhibition, 48 h
Give criterion met when the value for TGI is at least 8 µM. Give criterion not met when it is less.

COMPOUND: O=C1C(Cl)C(c2cc3cc(Br)ccc3nc2Cl)N1c1ccc(Cl)cc1 (centres undefined)
QUALITATIVE_LABEL: criterion met
//
COMPOUND: O=C(Nc1ccc(Cl)c(Cl)c1)N1N=C2c3ccccc3CCC2C1c1ccc(Cl)cc1 (centres undefined)
QUALITATIVE_LABEL: criterion met
//
COMPOUND: O=C(/C(=C/c1ccc([N+](=O)[O-])cc1)SCc1ccc(F)cc1)c1ccc(Cl)cc1
QUALITATIVE_LABEL: criterion not met
//
COMPOUND: N#CCC(=O)N/N=C(\C(=O)Nc1ccc(Cl)c(Cl)c1)C1CN(c2ccccc2)N=C1N (centres undefined)
QUALITATIVE_LABEL: criterion met
//
COMPOUND: OC1C2CCC1C1C3C=CC(C3)C21 (centres undefined)
QUALITATIVE_LABEL: criterion met
//
COMPOUND: c1ccc(C(=NNc2cnc3ccccc3n2)c2ccccn2)cc1
QUALITATIVE_LABEL: criterion met
//
COMPOUND: C/C(=N\NC(=S)N(C)CCN(C)C(=S)N/N=C(\C)c1ccccn1)c1ccccn1
QUALITATIVE_LABEL: criterion met
//
COMPOUND: CC1OC(OC2C(CO)OC(O[C@H]3CC[C@@]4(C)C(=CC[C@H]5[C@@H]6C[C@@H]7O[C@]8(CC[C@@H](C)CN8)[C@@H](C)[C@@H]7[C@@]6(C)CC[C@@H]54)C3)C(O)C2O)C(O)C(O)C1O (some centres undefined)
QUALITATIVE_LABEL: criterion met
//
COMPOUND: COc1ccc2c(c1OC)OCC(CN(C)C)C2=O (centres undefined)
QUALITATIVE_LABEL: criterion not met
//
COMPOUND: CCOP(=O)(OCC)[C@H]1OC(C)(C)O[C@@H]1CO
QUALITATIVE_LABEL: criterion met
//
COMPOUND: OCC1OC(n2cnc3c(Cl)nc(Cl)cc32)C(O)C1O (centres undefined)
QUALITATIVE_LABEL: criterion met
//
COMPOUND: Nc1c(C(=O)c2ccc(CCCN3CCOCC3)cc2)cnn1-c1ccc(F)cc1
QUALITATIVE_LABEL: criterion met
//
COMPOUND: CCCCCCCCCCCCCCCCOP(=O)(O)OP(=O)(O)OCC1OC(n2ccc(N)nc2=O)C(O)C1O (centres undefined)
QUALITATIVE_LABEL: criterion met
//
COMPOUND: COc1cc(-c2nn(-c3cccc(NC(=O)c4ccc(N5CCOCC5)c(C(F)(F)F)c4)c3)cc2-c2ccncc2)ccc1Cl
QUALITATIVE_LABEL: criterion not met
//
COMPOUND: Clc1ccc(-c2ccc(-c3nn4c(CNc5ccccc5)nnc4s3)o2)c(Cl)c1
QUALITATIVE_LABEL: criterion met
//
COMPOUND: C[C@H](CCCNCCCNCCCN)[C@H]1CC[C@H]2[C@@H]3[C@H](OCCCN)C[C@H]4C[C@H](OCCCN)CC[C@]4(C)[C@H]3C[C@H](OCCCN)[C@]12C
QUALITATIVE_LABEL: criterion met
//
COMPOUND: Cc1ccc(C)c2c1CC(Cc1ccccc1C(=O)O)C2=O (centres undefined)
QUALITATIVE_LABEL: criterion met
//
COMPOUND: CN(C)CCCNC(=O)c1cncnc1Nc1ccc(OCc2cccc(F)c2)c(Cl)c1
QUALITATIVE_LABEL: criterion not met
//
COMPOUND: CC(=O)C1(N=Nc2ccc(S(N)(=O)=O)cc2)CCOC1=O (centres undefined)
QUALITATIVE_LABEL: criterion met
